Biological target: Glucocorticoid receptor (Homo sapiens, UniProt P04150)
Sequence (P04150 whole entry): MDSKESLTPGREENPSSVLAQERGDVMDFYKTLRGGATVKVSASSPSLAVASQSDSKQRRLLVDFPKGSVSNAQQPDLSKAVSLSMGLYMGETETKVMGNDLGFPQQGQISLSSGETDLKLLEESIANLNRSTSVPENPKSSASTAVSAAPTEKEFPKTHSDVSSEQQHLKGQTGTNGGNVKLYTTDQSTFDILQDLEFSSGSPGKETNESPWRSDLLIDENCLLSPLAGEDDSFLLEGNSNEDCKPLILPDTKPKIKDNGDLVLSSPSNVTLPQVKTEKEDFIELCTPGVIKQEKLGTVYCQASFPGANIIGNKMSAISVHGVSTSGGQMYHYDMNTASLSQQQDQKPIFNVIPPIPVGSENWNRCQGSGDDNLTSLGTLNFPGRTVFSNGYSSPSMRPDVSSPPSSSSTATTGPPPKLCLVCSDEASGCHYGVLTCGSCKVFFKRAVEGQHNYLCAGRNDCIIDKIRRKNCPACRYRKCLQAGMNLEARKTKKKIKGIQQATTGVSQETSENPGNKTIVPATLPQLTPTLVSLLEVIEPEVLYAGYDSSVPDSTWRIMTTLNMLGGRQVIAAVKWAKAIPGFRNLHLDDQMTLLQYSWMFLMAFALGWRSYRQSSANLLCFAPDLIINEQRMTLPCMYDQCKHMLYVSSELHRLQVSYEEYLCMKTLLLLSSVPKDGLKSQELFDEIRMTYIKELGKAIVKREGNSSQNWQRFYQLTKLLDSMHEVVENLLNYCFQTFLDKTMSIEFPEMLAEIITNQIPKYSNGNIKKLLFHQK
Assay: Antagonist activity at human glucocorticoid receptor expressed in GRAF cells assessed as inhibition of dexamethasone-induced alkaline phosphatase expression after 48 hrs by reporter gene assay
Type: functional, cell-based
pIC50: −log10 of the molar value.
measurement_name: pIC50

Worked examples, 2 molecules total:
O=C(O)Cc1cc(Br)c(N(Cc2ccc(Oc3ccc(C(F)(F)F)cc3C(F)(F)F)cc2)Cc2cc(F)cc(F)c2)c(Br)c1 | 6.38
O=C(O)Cc1cc(Br)c(N(Cc2ccc(Oc3ccccc3Br)cc2)Cc2cc(F)cc(F)c2)c(Br)c1 | 5.93

A = O=C(O)Cc1cc(Br)c(N(Cc2ccc(Oc3ccccc3F)cc2)Cc2cc(F)cc(F)c2)c(Br)c1
B = O=C(O)Cc1cc(Br)c(N(Cc2ccc(Oc3ccccc3)cc2)Cc2cc(F)cc(F)c2)c(Br)c1
Hi, I'm comparing two records. Which one has the lower pIC50, A or B ? Write down the label attached to your selection.
B

---

Assay: Oral bioavailability in Sprague-Dawley rat
Format: ADME, organism-based
Conditions: in vivo
measurement_name: bioavailability (%)
Write the answer as a number in %, unit excluded.

# get_value(readout='bioavailability', item= O=C(O)Cc1cc(Br)c(N(Cc2ccc(Oc3ccc(F)cc3F)cc2)Cc2cc(F)cc(F)c2)c(Br)c1 )
10.7

---

Assay: Drug uptake in Sprague-Dawley rat liver at 20 mg/kg, po administered as single dose measured at 0.5 hrs
Type: ADME, organism-based
Parameters: dose 20 mg/kg, route oral
Conditions: read-out: Drug uptake
measurement_name: concentration at 0.5 h (ng/mL)
Write the answer as a number in ng/mL, unit excluded.

# get_value(readout='concentration at 0.5 h', item= O=C(O)Cc1cc(Br)c(N(Cc2ccc(Oc3ccc(F)cc3F)cc2)Cc2cc(F)cc(F)c2)c(Br)c1 )
21800

---

Target: Glucocorticoid receptor (Rattus norvegicus, UniProt P06536)
Sequence (P06536 whole entry): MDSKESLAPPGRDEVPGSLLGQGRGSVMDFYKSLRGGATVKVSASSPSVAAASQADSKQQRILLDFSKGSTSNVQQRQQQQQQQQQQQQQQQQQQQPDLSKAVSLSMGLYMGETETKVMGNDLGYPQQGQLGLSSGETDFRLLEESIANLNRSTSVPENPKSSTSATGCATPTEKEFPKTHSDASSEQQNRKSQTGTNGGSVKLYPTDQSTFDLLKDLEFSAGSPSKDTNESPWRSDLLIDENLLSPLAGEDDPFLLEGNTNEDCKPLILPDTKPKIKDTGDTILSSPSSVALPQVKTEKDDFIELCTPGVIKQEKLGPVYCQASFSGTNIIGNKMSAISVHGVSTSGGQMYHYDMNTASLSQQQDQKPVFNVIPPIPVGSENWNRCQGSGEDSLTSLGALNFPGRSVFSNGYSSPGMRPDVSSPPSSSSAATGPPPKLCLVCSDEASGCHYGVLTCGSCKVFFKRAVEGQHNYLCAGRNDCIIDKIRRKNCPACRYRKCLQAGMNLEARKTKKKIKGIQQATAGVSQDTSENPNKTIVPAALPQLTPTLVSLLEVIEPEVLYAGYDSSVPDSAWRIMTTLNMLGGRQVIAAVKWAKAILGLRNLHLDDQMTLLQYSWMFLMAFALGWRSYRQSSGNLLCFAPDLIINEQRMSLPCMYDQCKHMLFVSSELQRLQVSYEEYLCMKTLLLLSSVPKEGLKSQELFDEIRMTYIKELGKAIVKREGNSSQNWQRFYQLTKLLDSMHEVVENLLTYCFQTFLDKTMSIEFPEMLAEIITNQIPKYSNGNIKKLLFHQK
Assay: Antagonist activity at glucocorticoid receptor in rat hepatocytes assessed as inhibition of dexamethasone-induced […] expression incubated for 30 mins prior to dexamethasone-induction measured after 4 hrs by reporter gene assay
Format: functional, cell-based, Hepatocyte
pIC50: −log10 of the molar value.
measurement_name: pIC50

O=C(O)Cc1cc(Br)c(N(Cc2ccc(Oc3ccc(Cl)cc3Cl)cc2)Cc2cc(F)cc(F)c2)c(Br)c1 | 5.59
O=C(O)Cc1cc(Br)c(N(Cc2ccc(Oc3ccccc3F)cc2)Cc2cc(F)cc(F)c2)c(Br)c1 | 5.68
O=C(O)Cc1cc(Br)c(N(Cc2ccc(Oc3ccccc3)cc2)Cc2cc(F)cc(F)c2)c(Br)c1 | 5.41
Cc1c(NS(C)(=O)=O)cccc1N(Cc1ccc(Oc2ccc(F)c(OCC(=O)O)c2)cc1)Cc1cc(F)cc(F)c1 | 5.73
O=C(O)Cc1cc(Br)c(N(Cc2ccc(Oc3ccccc3C(F)(F)F)cc2)Cc2cc(F)cc(F)c2)c(Br)c1 | 5.48

I = O=C(O)Cc1cc(Br)c(N(Cc2ccc(Oc3ccc(C(F)(F)F)cc3C(F)(F)F)cc2)Cc2cc(F)cc(F)c2)c(Br)c1
II = O=C(O)Cc1cc(Br)c(N(Cc2ccc(Oc3ccc(F)cc3F)cc2)Cc2cc(F)cc(F)c2)c(Br)c1
Hi, I'm comparing two records. Which one has the lower pIC50, I or II ? Write down the label attached to your selection.
I
(I: 5.54, II: 6.05)
